test system: SNB-19 CNS; assay: NCI-60 one-dose screen, 48 h (100 = growth as untreated, 0 = no growth, -100 = all killed); conditions: 10 µM unless noted
The panel holds about 83,000 compounds, 20% with a hit somewhere; the sample as a whole holds those more often.
Please go through the items and note down their growth.
Give bare numbers, in %.

Some solved entries appear below for comparison.
- COc1cc(OC)c(C2SCC(=O)N2Nc2ncnc3ccccc23)cc1OC (centres undefined): 99.4
- Clc1ccc2c(OCCCN3CCOCC3)c3oc4ccccc4c3nc2c1: 41.9
- COc1cc(/C=C/C(=O)c2cc(OC)c(OC)c(OC)c2)ccc1Oc1nc(NCCO)nc(N2CCOCC2)n1: 12.4

# lookup: growth of C=CCn1c(SCC(=O)c2ccc(Br)cc2)nnc1-c1c[nH]c2ccccc12
100
